protocol.summary: Sun protection factor (SPF) by UV spectrophotometry, Mansur equation
Type: physicochemical
settings: peptide 10 mg/mL, UVB 290–320 nm absorbance, CF 10, mean ± standard deviation (n = 3), SD
Marks after values point to notes of the source that are not given here.
readout.name: SPF

// below: answered sequences
- ordered.residues: "FMMFESQNKDLLFK [DIP3]"
  SPF: "1.98 ± 0.05 ^b"
- ordered.residues: "FDKLPGFGD [MIP3]"
  SPF: "1.36 ± 0.02 ^a"
- ordered.residues: "HIATNAVLFFGR [DIP2]"
  SPF: "6.45 ± 0.40 ^d"

Query: Using the record for ILELPFASGDLLML [MIP2] , report its SPF.
Response: 3.12 ± 0.13 ^c
